test: Oral bioavailability in dog at 2 mg/kg; type: ADME, organism-based, Canis lupus familiaris; conditions: in vivo
outcome measure: bioavailability (%)

a = CCCOCCn1c(=O)c(NCC(=O)N2CCOCC2)nc2cnc(-c3ccc(OC)nc3)cc21
b = CCCOCCn1c(=O)c(NCC(=O)NC)nc2ncc(-c3ccc(OC)nc3)cc21
c = CCCOCCn1c(=O)c(N[C@H]2CC[C@H](O)CC2)nc2cnc(-c3ccc(OC)nc3)cc21
[ask] Which order do the items above take when sorted by bioavailability from high to low? Answer by writing out the labels in the requested order.
[reply] c, b, a
(c: 75%, b: 52%, a: 32%)

Data provenance: ChEMBL document CHEMBL1155301
